B1: CSTF3 (parent)
chain: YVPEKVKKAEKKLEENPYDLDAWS

variants of: B1; assay: protein stability index of a GFP-peptide fusion (GPS, HEK-293T) (PSI 1-6); higher = more stable; conditions: c terminus: a fixed tail appended;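 also: lentivirally expressed fusions sorted by FACS into six bins by GFP to DsRed ratio, PSI derived from sequencing read proportions per bin multiplied by bin number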
Please note: yes applies when protein stability index is 3 or greater, and no applies otherwise.

- Variant Label: "V2S"
  Answer Label: "yes"
- Variant Label: "E10Y"
  Answer Label: "no"
- Variant Label: "E15C"
  Answer Label: "no"
- Variant Label: "E10H"
  Answer Label: "yes"
- Variant Label: "K12S"
  Answer Label: "yes"
- Variant Label: "W23P"
  Answer Label: "yes"
- Variant Label: "V2L"
  Answer Label: "yes"
- Variant Label: "D19R"
  Answer Label: "no"
- Variant Label: "P3F"
  Answer Label: "no"
- Variant Label: "L13T"
  Answer Label: "no"
- Variant Label: "P17V"
  Answer Label: "no"
- Variant Label: "D21Y"
  Answer Label: "no"
- Variant Label: "N16L"
  Answer Label: "yes"
- Variant Label: "K5V"
  Answer Label: "no"
- Variant Label: "P3Q"
  Answer Label: "no"
- Variant Label: "N16Y"
  Answer Label: "no"
- Variant Label: "V2Q"
  Answer Label: "yes"
- Variant Label: "A9Y"
  Answer Label: "yes"
- Variant Label: "S24I"
  Answer Label: "no"
- Variant Label: "V2K"
  Answer Label: "yes"
- Variant Label: "D21G"
  Answer Label: "no"
- Variant Label: "D21P"
  Answer Label: "no"
- Variant Label: "A22I"
  Answer Label: "no"
